# Test system: Escherichia coli TOP10;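 note: peptides expressed intracellularly from a pBAD plasmid library in pooled LB shake-flask culture, induced with 0.3% L-arabinose, DNA abundance read by NGS, three biological replicates, DESeq2 with apeglm shrinkage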
# experiment description: shrunken log2 fold change of peptide-encoding DNA abundance (4.5 h post-induction vs induction); higher = less antimicrobial activity (less host growth inhibition)
# condition label: time post-induction: 4.5 h; library: site-saturation at positions 5, 18, 19, 20

- sequence input: "RRIRKRPPRLPRPRPRPENSPRP"
  study system: "Escherichia coli TOP10"
  shrunken log2 fold change: -0.131
- sequence input: "RRIRPRPPRLPRPRPRPYEEPRP"
  study system: "Escherichia coli TOP10"
  shrunken log2 fold change: -0.214
- sequence input: "RRIRRRPPRLPRPRPRPKTMPRP"
  study system: "Escherichia coli TOP10"
  shrunken log2 fold change: 0.348
- sequence input: "RRIRQRPPRLPRPRPRPYVDPRP"
  study system: "Escherichia coli TOP10"
  shrunken log2 fold change: -0.431
- sequence input: "RRIRRRPPRLPRPRPRPTVVPRP"
  study system: "Escherichia coli TOP10"
  shrunken log2 fold change: 0.0199
- sequence input: "RRIRVRPPRLPRPRPRPCGCPRP"
  study system: "Escherichia coli TOP10"
  shrunken log2 fold change: 0.0165
- sequence input: "RRIRLRPPRLPRPRPRPRTFPRP"
  study system: "Escherichia coli TOP10"
  shrunken log2 fold change: -0.0808
- sequence input: "RRIRMRPPRLPRPRPRPWENPRP"
  study system: "Escherichia coli TOP10"
  shrunken log2 fold change: -0.0294
- sequence input: "RRIRIRPPRLPRPRPRPCFEPRP"
  study system: "Escherichia coli TOP10"
  shrunken log2 fold change: -0.626
- sequence input: "RRIRNRPPRLPRPRPRPCITPRP"
  study system: "Escherichia coli TOP10"
  shrunken log2 fold change: -0.049
- sequence input: "RRIRFRPPRLPRPRPRPDGQPRP"
  study system: "Escherichia coli TOP10"
  shrunken log2 fold change: -0.0411
- sequence input: "RRIRLRPPRLPRPRPRPDNWPRP"
  study system: "Escherichia coli TOP10"
  shrunken log2 fold change: -0.0493
- sequence input: "RRIRQRPPRLPRPRPRPMFEPRP"
  study system: "Escherichia coli TOP10"
  shrunken log2 fold change: 0.118
- sequence input: "RRIRNRPPRLPRPRPRPDKFPRP"
  study system: "Escherichia coli TOP10"
  shrunken log2 fold change: -0.188
- sequence input: "RRIRPRPPRLPRPRPRPKIRPRP"
  study system: "Escherichia coli TOP10"
  shrunken log2 fold change: -0.137
- sequence input: "RRIRRRPPRLPRPRPRPKRIPRP"
  study system: "Escherichia coli TOP10"
  shrunken log2 fold change: 0.191
- sequence input: "RRIRTRPPRLPRPRPRPYQSPRP"
  study system: "Escherichia coli TOP10"
  shrunken log2 fold change: -0.465
- sequence input: "RRIRPRPPRLPRPRPRPQNSPRP"
  study system: "Escherichia coli TOP10"
  shrunken log2 fold change: -0.469
- sequence input: "RRIRWRPPRLPRPRPRPQFFPRP"
  study system: "Escherichia coli TOP10"
  shrunken log2 fold change: -0.134
- sequence input: "RRIRARPPRLPRPRPRPHYNPRP"
  study system: "Escherichia coli TOP10"
  shrunken log2 fold change: -0.467
- sequence input: "RRIRKRPPRLPRPRPRPGFIPRP"
  study system: "Escherichia coli TOP10"
  shrunken log2 fold change: -0.307
- sequence input: "RRIRRRPPRLPRPRPRPAAGPRP"
  study system: "Escherichia coli TOP10"
  shrunken log2 fold change: 0.326
- sequence input: "RRIRQRPPRLPRPRPRPNKWPRP"
  study system: "Escherichia coli TOP10"
  shrunken log2 fold change: -0.0433
- sequence input: "RRIRSRPPRLPRPRPRPFEGPRP"
  study system: "Escherichia coli TOP10"
  shrunken log2 fold change: 0.123
- sequence input: "RRIRNRPPRLPRPRPRPYGEPRP"
  study system: "Escherichia coli TOP10"
  shrunken log2 fold change: -0.16
- sequence input: "RRIRVRPPRLPRPRPRPPRAPRP"
  study system: "Escherichia coli TOP10"
  shrunken log2 fold change: 0.641
- sequence input: "RRIRLRPPRLPRPRPRPVFIPRP"
  study system: "Escherichia coli TOP10"
  shrunken log2 fold change: -0.454
- sequence input: "RRIRFRPPRLPRPRPRPKIVPRP"
  study system: "Escherichia coli TOP10"
  shrunken log2 fold change: -0.207
- sequence input: "RRIRKRPPRLPRPRPRPRIQPRP"
  study system: "Escherichia coli TOP10"
  shrunken log2 fold change: 0.475
- sequence input: "RRIRERPPRLPRPRPRPIEMPRP"
  study system: "Escherichia coli TOP10"
  shrunken log2 fold change: -0.0653
- sequence input: "RRIRWRPPRLPRPRPRPWYDPRP"
  study system: "Escherichia coli TOP10"
  shrunken log2 fold change: -0.31
- sequence input: "RRIRVRPPRLPRPRPRPVLLPRP"
  study system: "Escherichia coli TOP10"
  shrunken log2 fold change: -0.35
- sequence input: "RRIRIRPPRLPRPRPRPFMYPRP"
  study system: "Escherichia coli TOP10"
  shrunken log2 fold change: -1.36
- sequence input: "RRIRERPPRLPRPRPRPQMIPRP"
  study system: "Escherichia coli TOP10"
  shrunken log2 fold change: 0.132
- sequence input: "RRIRKRPPRLPRPRPRPQDEPRP"
  study system: "Escherichia coli TOP10"
  shrunken log2 fold change: -0.0149
- sequence input: "RRIRCRPPRLPRPRPRPMLFPRP"
  study system: "Escherichia coli TOP10"
  shrunken log2 fold change: 0.545
- sequence input: "RRIRSRPPRLPRPRPRPNNSPRP"
  study system: "Escherichia coli TOP10"
  shrunken log2 fold change: -0.724
- sequence input: "RRIRPRPPRLPRPRPRPHVWPRP"
  study system: "Escherichia coli TOP10"
  shrunken log2 fold change: 0.51
- sequence input: "RRIRSRPPRLPRPRPRPVSMPRP"
  study system: "Escherichia coli TOP10"
  shrunken log2 fold change: 0.0888
- sequence input: "RRIRFRPPRLPRPRPRPLETPRP"
  study system: "Escherichia coli TOP10"
  shrunken log2 fold change: 0.105
- sequence input: "RRIRVRPPRLPRPRPRPTTMPRP"
  study system: "Escherichia coli TOP10"
  shrunken log2 fold change: 0.00526
- sequence input: "RRIRWRPPRLPRPRPRPKAQPRP"
  study system: "Escherichia coli TOP10"
  shrunken log2 fold change: 0.0185
- sequence input: "RRIRERPPRLPRPRPRPLQGPRP"
  study system: "Escherichia coli TOP10"
  shrunken log2 fold change: -0.179
- sequence input: "RRIRCRPPRLPRPRPRPSTAPRP"
  study system: "Escherichia coli TOP10"
  shrunken log2 fold change: 0.0354
- sequence input: "RRIRVRPPRLPRPRPRPCWLPRP"
  study system: "Escherichia coli TOP10"
  shrunken log2 fold change: -0.0153
- sequence input: "RRIRHRPPRLPRPRPRPLMAPRP"
  study system: "Escherichia coli TOP10"
  shrunken log2 fold change: -0.206
- sequence input: "RRIRRRPPRLPRPRPRPVYTPRP"
  study system: "Escherichia coli TOP10"
  shrunken log2 fold change: 0.0292
- sequence input: "RRIRQRPPRLPRPRPRPKIIPRP"
  study system: "Escherichia coli TOP10"
  shrunken log2 fold change: -0.367
- sequence input: "RRIRTRPPRLPRPRPRPDTIPRP"
  study system: "Escherichia coli TOP10"
  shrunken log2 fold change: -0.0386
- sequence input: "RRIRSRPPRLPRPRPRPTKDPRP"
  study system: "Escherichia coli TOP10"
  shrunken log2 fold change: -0.105
- sequence input: "RRIRIRPPRLPRPRPRPPLQPRP"
  study system: "Escherichia coli TOP10"
  shrunken log2 fold change: 0.0345
- sequence input: "RRIRLRPPRLPRPRPRPCNMPRP"
  study system: "Escherichia coli TOP10"
  shrunken log2 fold change: 0.0385
- sequence input: "RRIRRRPPRLPRPRPRPKSVPRP"
  study system: "Escherichia coli TOP10"
  shrunken log2 fold change: 0.0439
- sequence input: "RRIRVRPPRLPRPRPRPSWIPRP"
  study system: "Escherichia coli TOP10"
  shrunken log2 fold change: -0.476
- sequence input: "RRIRTRPPRLPRPRPRPKGNPRP"
  study system: "Escherichia coli TOP10"
  shrunken log2 fold change: -0.403
- sequence input: "RRIRIRPPRLPRPRPRPYFWPRP"
  study system: "Escherichia coli TOP10"
  shrunken log2 fold change: -0.388
- sequence input: "RRIRPRPPRLPRPRPRPWGVPRP"
  study system: "Escherichia coli TOP10"
  shrunken log2 fold change: -0.128
- sequence input: "RRIRKRPPRLPRPRPRPMTLPRP"
  study system: "Escherichia coli TOP10"
  shrunken log2 fold change: -0.0281
- sequence input: "RRIRVRPPRLPRPRPRPMIFPRP"
  study system: "Escherichia coli TOP10"
  shrunken log2 fold change: -0.213
- sequence input: "RRIRIRPPRLPRPRPRPCKNPRP"
  study system: "Escherichia coli TOP10"
  shrunken log2 fold change: -0.299
- sequence input: "RRIRERPPRLPRPRPRPCSGPRP"
  study system: "Escherichia coli TOP10"
  shrunken log2 fold change: -0.434
- sequence input: "RRIRDRPPRLPRPRPRPYIRPRP"
  study system: "Escherichia coli TOP10"
  shrunken log2 fold change: -0.12
- sequence input: "RRIRHRPPRLPRPRPRPFCRPRP"
  study system: "Escherichia coli TOP10"
  shrunken log2 fold change: -0.108
